# target_desc: Recombinant human cathepsin A (Homo sapiens (Human), UniProt P10619)
# Sequence (P10619 29-326): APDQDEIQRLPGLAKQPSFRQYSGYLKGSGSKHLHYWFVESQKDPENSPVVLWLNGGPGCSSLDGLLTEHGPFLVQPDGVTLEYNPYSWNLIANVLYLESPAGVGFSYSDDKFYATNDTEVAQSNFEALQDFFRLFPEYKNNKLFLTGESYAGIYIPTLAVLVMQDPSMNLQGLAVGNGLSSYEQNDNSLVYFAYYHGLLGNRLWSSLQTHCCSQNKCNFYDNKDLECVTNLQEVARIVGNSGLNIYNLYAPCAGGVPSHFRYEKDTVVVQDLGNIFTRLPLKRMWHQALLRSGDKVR
# Sequence (P10619 327-480): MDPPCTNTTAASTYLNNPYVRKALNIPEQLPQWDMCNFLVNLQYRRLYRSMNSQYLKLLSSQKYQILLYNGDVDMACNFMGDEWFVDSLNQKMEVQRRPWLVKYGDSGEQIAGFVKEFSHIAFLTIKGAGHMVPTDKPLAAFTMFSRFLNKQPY
# method_notes: Cathepsin A inhibitory activity (cleavage of Bodipy FL-labeled bradykinin, microfluidic capillary electrophoresis)
# Type: biochemical
# applied_conditions: read-out: Activity [μM] (IC50, cathepsin A inhibitory activity)
Measured IC50 of individual entries
Reply with just the number (in µM).

Quick check: IC50 of Cc1ccccc1[C@H](CC(=O)O)NC(=O)c1cccc(-c2ccc(F)c(Cl)c2)n1 ?
3.62

###

# target_desc: Recombinant human cathepsin A (Homo sapiens (Human))
# method_notes: Cathepsin A inhibitory activity (cleavage of Bodipy FL-labeled bradykinin, microfluidic capillary electrophoresis)
# Format: biochemical
# applied_conditions: read-out: Activity [μM] (IC50, cathepsin A inhibitory activity)
# IC50 listing for each entry below
Use µM as the unit, but write only the number.

COc1ncc(C(=O)N[C@@H](CC(=O)O)c2ccccc2Cl)cc1-c1cccc(F)c1 [compound 341] ... 9.86
Cc1ccccc1[C@H](CC(=O)O)NC(=O)c1cccc(-c2cccc(F)c2C)n1 [compound 172] ... 3.21
COc1ccc(C(=O)N[C@@H](CC(=O)O)c2ccccc2C)nc1-c1cccc(C#N)c1 [compound 359] ... 4.49

Item: COc1ncc(C(=O)N[C@@H](CC(=O)O)c2ccccc2Cl)cc1-c1ccc(C)cc1 [compound 388] Test system: Recombinant human cathepsin A (Homo sapiens (Human)) Read-out: IC50 Value: ?
7.12

Entry source: patent US9029559B2
